tested-system: T1, HUMAN B7H3 (Biacore analyte) (human, UniProt Q5ZPR3 29-461, limits assumed)
T1 construct: also called hB7H3
T1 sequence (looked up): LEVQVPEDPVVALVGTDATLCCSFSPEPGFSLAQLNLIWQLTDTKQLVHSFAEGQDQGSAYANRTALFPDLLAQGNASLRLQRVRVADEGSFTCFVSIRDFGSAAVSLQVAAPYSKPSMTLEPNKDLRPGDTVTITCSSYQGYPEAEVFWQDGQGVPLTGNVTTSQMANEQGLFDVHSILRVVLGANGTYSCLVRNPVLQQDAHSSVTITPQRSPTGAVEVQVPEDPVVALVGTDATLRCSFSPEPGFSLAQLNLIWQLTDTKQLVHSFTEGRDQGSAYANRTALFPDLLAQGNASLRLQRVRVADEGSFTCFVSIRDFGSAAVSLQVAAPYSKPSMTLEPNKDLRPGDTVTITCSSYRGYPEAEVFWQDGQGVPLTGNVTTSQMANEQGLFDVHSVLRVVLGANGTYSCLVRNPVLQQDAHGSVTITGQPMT
assay-comment: SPR, Biacore 8K, antibody captured, B7H3 as analyte, 1:1 binding
readout-name: koff
Report the figure along with its unit, number first.

10-G6-C4-B2 (human IgG1 chimeric antibody) (antibody, V domains shown, human IgG1 chimeric antibody of the mouse clone) VH: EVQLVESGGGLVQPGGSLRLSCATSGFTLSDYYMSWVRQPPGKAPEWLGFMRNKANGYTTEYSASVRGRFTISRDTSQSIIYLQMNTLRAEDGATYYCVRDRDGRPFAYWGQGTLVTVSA VL: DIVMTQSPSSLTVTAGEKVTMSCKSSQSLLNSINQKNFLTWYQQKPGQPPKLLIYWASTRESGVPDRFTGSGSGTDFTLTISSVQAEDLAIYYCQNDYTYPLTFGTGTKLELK | 0.000198 s⁻¹
MGC018 (antibody, V domains shown) VH: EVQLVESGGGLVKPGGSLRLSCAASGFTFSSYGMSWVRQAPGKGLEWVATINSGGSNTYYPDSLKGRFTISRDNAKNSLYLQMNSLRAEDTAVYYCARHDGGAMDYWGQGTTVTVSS VL: DIQMTQSPSSLSASVGDRVTITCRASESIYSYLAWYQQKPGKAPKLLVYNTKTLPEGVPSRFSGSGSGTDFTLTISSLQPEDFATYYCQHHYGTPPWTFGQGTRLEIKR | 0.000408 s⁻¹

Below: the item to evaluate.
QUERY: Consider the binder shown here: 16-C6-F7-F5 (human IgG1 chimeric antibody) (antibody, V domains shown, human IgG1 chimeric antibody of the mouse clone) VH: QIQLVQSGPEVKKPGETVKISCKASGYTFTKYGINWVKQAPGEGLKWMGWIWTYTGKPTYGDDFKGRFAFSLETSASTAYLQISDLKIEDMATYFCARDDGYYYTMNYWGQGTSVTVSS VL: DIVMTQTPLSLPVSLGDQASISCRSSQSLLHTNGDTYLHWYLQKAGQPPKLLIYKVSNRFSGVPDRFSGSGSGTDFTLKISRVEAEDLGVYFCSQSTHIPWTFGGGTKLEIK What is its recorded koff?
RESULT: 0.000243 s⁻¹
